src = PubChem BioAssay AID1159580

# experiment summary: chemical genetic growth profiling, strain panel (AID 1159580);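 further: tested at 20 µM; growth read once vehicle control cultures reached saturation at 30 °C; 1 = growth at the plate median or of vehicle wells; lower values mean less growth of the strain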
# condition set: S. cerevisiae deletion strains, growth OD, locus YKR091W, strain srl3, stronger effect = lower value
In all, about 5,500 compounds went through this assay and about 2,000 (36%) were called active. Inconclusive results (about 18%) are left out. Some of the results follow.
Recorded normalized growth by entry

// known answers, use as guide
[
  {
    "molecule": "CC(=O)O[C@@H]1CC2C(C)(C)CCC(=O)[C@]2(C)C2CC[C@@]3(C)[C@H](c4ccoc4)OC(=O)C4OC43[C@@]21C (stereo not given in full)",
    "result": "1 (inactive)"
  },
  {
    "molecule": "O=c1c(-c2ccc(O)cc2)coc2cc(O)cc(O)c12",
    "result": "1.01 (inactive)"
  }
]

Specify measured normalized growth for `O=C(O)c1cn(-c2ccc(F)cc2)c2cc(N3CCNCC3)c(F)cc2c1=O` .
0.979 (inactive)

Name the recorded normalized growth of the molecule listed here: `O=c1c(-c2ccccc2)coc2cc(O)cc(O)c12`
1.01 (inactive)

Please report the measured normalized growth for `CCN1CCN(c2cc3c(cc2F)c(=O)c(C(=O)O)cn3C2CC2)CC1`
1 (inactive)

---

# experiment summary: chemical genetic growth profiling, strain panel (AID 1159580)
# condition set: S. cerevisiae deletion strains, growth OD, locus YDL028C, strain MPS1
Among all 5,500 compounds or so, about 2,000 (36%) were called active. Inconclusive results (about 18%) are left out. Cut-off read from the data, not from the text of the source: active = normalized growth mostly below about 0.91 (no sharp cut-off); inconclusive = no clear call, values can overlap the other calls; inactive = mostly above about 0.92. The list shows a part of the results.
Choose one outcome from this list and give only that: 1 for active, -1 for inactive

Below are worked cases with known answers.
[
  {
    "compound": "N#CCCCCOc1ccc2c(=O)cc(-c3ccccc3)oc2c1",
    "category": -1
  },
  {
    "compound": "CCCc1cnc(N2CCN(CC(=O)N(c3ccccc3)C3CCCCC3)CC2)nc1",
    "category": -1
  },
  {
    "compound": "Clc1ccc(-c2csc(Nc3ccccc3)n2)s1",
    "category": -1
  },
  {
    "compound": "Cc1ccc(C(=O)O/N=C(/N)CSc2ncccc2C(F)(F)F)cc1",
    "category": -1
  },
  {
    "compound": "Cc1cc(C(=O)O/N=C(/N)CSc2ncccc2C(F)(F)F)no1",
    "category": -1
  }
]

In this assay, the call recorded for `O=C1Nc2ccccc2/C1=N/N=C\c1cc(Br)cc(Br)c1O` was what?
-1

Recorded call for `N#Cc1c(Br)cnn1Cc1cc(C(F)(F)F)cc(C(F)(F)F)c1` ?
-1

Which outcome was entered for the compound `O=C1Nc2ccccc2/C1=N/N=C\c1ccccc1Cl` in this test?
-1

Any idea what this test logged for `Cc1nc(-c2ccc(C(F)(F)F)cn2)[nH]c(=O)c1Cl` ?
-1

For this compound, state the assay outcome: `C#Cc1cccc(N=Cc2cc(Cl)cc(Br)c2O)c1`
1

Could you kindly confirm the outcome this assay logged for `N/C(CSc1ccc(Cl)cc1)=N/OC(=O)c1ccc(C(F)(F)F)cc1` ?
1

Look up the recorded call for `O=C(NNC(=O)c1csc(-c2cccs2)n1)c1ccc(C(F)(F)F)cc1` in this test.
-1

// param item: `CC(C)(C)c1csc(NC(=O)Nc2ccc(Cl)cc2)n1` ; yields the recorded call
-1

Write down the call the test reported for this compound. Item: `O=C1c2ccccc2O[C@@H](c2ccccc2)[C@@H]1NCc1ccccc1`
-1

Called result for `CC(C)(C)c1cc2nc(C(F)(F)F)cc(NNC(=O)c3ccc(Cl)cc3)n2n1`
-1

Recorded call for `COc1cc(NC(=S)Nc2ccccc2OC(F)(F)F)cc(C(F)(F)F)c1` ?
-1

Given CCC(C)COC(=O)/C=C/c1ccc(N=Cc2ccc(OC)cc2)cc1 (stereo not drawn) , state the outcome it received in this test.
-1

Which result was noted for this compound in the test: `CC(C)c1ccc(-c2cc(=O)c3ccccc3o2)cc1`
-1

Write down the call the test reported for this compound. Item: `C/C(=N/Nc1nc(C(C)(C)C)cs1)c1ccc(Cl)c(Cl)c1`
-1

How was COc1ccc(C2CC(c3ccccc3)=Nc3ccccc3S2)cc1OC (stereo not drawn) classified in this test?
-1

Outcome? `N=c1ccc2nc3c(Cl)c4c(c(Cl)c3oc-2c1S(=O)(=O)O)Nc1ccc(N)c(S(=O)(=O)O)c1O4`
-1

Would you mind telling me which call this test gave `O=C(NCc1cccs1)c1csc(Cc2c(Cl)cccc2Cl)n1` ?
-1

Tell me the recorded outcome of this test for `Cc1ccc2c(c1)CCCN2CC(=O)N(c1ccccc1)C1CCCCC1` .
-1

---

# experiment summary: chemical genetic growth profiling, strain panel (AID 1159580);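 further: tested at 20 µM; growth read once vehicle control cultures reached saturation at 30 °C; 1 = growth at the plate median or of vehicle wells; lower values mean less growth of the strain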
# condition set: S. cerevisiae deletion strains, growth OD, locus YLL001W, strain dnm1, stronger effect = lower value
Out of some 5,500 compounds screened, about 2,000 (36%) were called active. Another 18% or so got no clear call; they are omitted. This is one part of the list.
normalized growth listing for selected compounds.
// keep it numeric: no unit symbol after the value

Below, 2 compounds whose answers are already recorded.
[
  {
    "compound": "CC1=CCc2c(cc3oc(C)cc(=O)c3c2O)OC1",
    "normalized growth": 0.968
  },
  {
    "compound": "N[C@@H]1CONC1=O",
    "normalized growth": 1.01
  }
]

Next compound, normalized growth to be filled in.
State its normalized growth: `NS(=O)(=O)c1cc2c(cc1C(F)(F)F)NCNS2(=O)=O`
0.98

---

# experiment summary: chemical genetic growth profiling, strain panel (AID 1159580);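 further: tested at 20 µM; growth read once vehicle control cultures reached saturation at 30 °C; 1 = growth at the plate median or of vehicle wells; lower values mean less growth of the strain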
# condition set: S. cerevisiae deletion strains, growth OD, locus YPL051W, strain arl3, stronger effect = lower value
The whole screen tested about 5,500 compounds, of which about 2,000 (36%) were called active. About 18% were inconclusive and are not listed. The list shows a part of the results.
Label true (1) when normalized growth is strictly below 0.9; otherwise label false (0).

Previously resolved entries follow.
[
  {
    "compound": "[N-]=[N+]=CC(=O)OCC(N)C(=O)O (stereo unspecified)",
    "category": "false (0)"
  },
  {
    "compound": "CC1(C)O[C@@H]2CC3C4CCC5=CC(=O)C=C[C@]5(C)[C@@]4(F)[C@@H](O)C[C@]3(C)[C@]2(C(=O)CO)O1 (stereo partly specified)",
    "category": "false (0)"
  },
  {
    "compound": "O=C(/C=C/c1ccccc1)c1ccc(O)cc1",
    "category": "true (1)"
  },
  {
    "compound": "Nc1nc(N)c2nc(-c3ccccc3)c(N)nc2n1",
    "category": "false (0)"
  }
]

Next item in the queue.
Threshold test, normalized growth < 0.9: `COc1ccc(C(=O)/C=C/c2ccccc2)cc1`
true (1)

---

Entries and their normalized growth values follow.
# experiment summary: chemical genetic growth profiling, strain panel (AID 1159580);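 further: tested at 20 µM; growth read once vehicle control cultures reached saturation at 30 °C; 1 = growth at the plate median or of vehicle wells; lower values mean less growth of the strain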
# condition set: S. cerevisiae deletion strains, growth OD, locus YGR092W, strain DBF2, stronger effect = lower value
Screen size: about 5,500 compounds; about 2,000 (36%) were called active. Not shown: some 18% with an inconclusive outcome. The list shows a part of the results.
API doc: respond with a numeric literal and nothing else, no unit.

Before answering, review these 5 worked examples.
[
  {
    "molecule": "CC(C)c1ccc(-c2cc(=O)c3ccccc3o2)cc1",
    "normalized growth": 0.569
  },
  {
    "molecule": "N#Cc1c(Br)cnn1Cc1cc(C(F)(F)F)cc(C(F)(F)F)c1",
    "normalized growth": 0.919
  },
  {
    "molecule": "O=C1c2ccccc2O[C@@H](c2ccccc2)[C@@H]1NC1CCCCC1",
    "normalized growth": 0.871
  },
  {
    "molecule": "CC(C)(C)c1csc(NNC(=O)c2ccc(Cl)cc2)n1",
    "normalized growth": 0.871
  },
  {
    "molecule": "CCCc1cnc(N2CCN(CC(=O)N(c3ccccc3)C3CCCCC3)CC2)nc1",
    "normalized growth": 1
  }
]

Dear colleague, please send me the reported normalized growth for `N/C(CSc1ccc(Cl)cc1)=N/OC(=O)c1ccc(C(F)(F)F)cc1` when you can.
0.805

Entry `Cc1csc2ncnc(N/N=C\c3ccccc3Cl)c12` needs its normalized growth filled in; supply it.
0.917

Assign normalized growth to the following record: `Cc1cc(C(=O)O/N=C(/N)CSc2ncccc2C(F)(F)F)no1`
1.02

Look up normalized growth of CCC(C)Cn1c(Sc2ncc([N+](=O)[O-])s2)n[nH]c1=O (stereo unspecified) and report it.
0.469

Supply measured normalized growth of `CN(C(=O)N(C)c1ccc(Cl)cc1C(=O)c1ccccc1Cl)c1ccc(Cl)cc1C(=O)c1ccccc1Cl` in your reply.
0.242

Complete the entry with normalized growth for `CC(C)(C)c1csc(NC(=O)Nc2ccc(Cl)cc2)n1`
0.48

Using the record for `CC(C)(C)c1csc(NC(=O)c2ccc(Cl)cc2Cl)n1` , state its measured normalized growth.
0.93
